TGI overview
- Tested on: SK-MEL-5 melanoma
- assay info: NCI tumour cell line growth inhibition, 48 h

molecule	unit	comparison symbol	TGI
N/C(=N\C(N)=N\c1nc2ccccc2s1)c1cnccn1	µM	=	5.89
Clc1cc2ncn(C3CCCCO3)c2cc1Cl (configuration not stated)	µM	>	100
COc1ccc(/C=C/C(C)=N/OCC(=O)Nc2ccc(Cl)cc2)cc1	µM	=	7.98
COc1cc(CCc2ccc(OC(C)=O)cc2)cc(OC)c1OC	µM	>	100
CCCCC[C@@H](C/C=C/CCC(=O)NC/C(=C/Cl)[C@H]1C(=O)C(C)(C)C(=O)[C@@H](C)[C@@]1(C)O)OC	µM	=	32.1
O=c1nc2[nH]c3c(-c4n[nH]c(=O)[nH]c4=O)cccc3c2n[nH]1	µM	>	100
Cc1ncc(CSC(=N)N)n1Cc1ccccc1	µM	>	100
C[n+]1c(-c2ccc(/C=N/NC(=O)C(=O)N/N=C/c3ccc(-c4cn5ccccc5[n+]4C)cc3)cc2)cn2ccccc21	µM	>	100
Cc1ccc(NCCN(C)C)c2c(=O)c3cc(O)ccc3sc12	µM	=	9.88
Cn1c(=O)c2c(nc(N/N=C3/SCC(=O)N3Cc3ccccc3)n2C)n(C)c1=O	µM	>	100
C=CCNC1=C2C[C@@H](C)C[C@@H](OC)[C@H](OC(=O)CCN(C)C)[C@H](C)/C=C(\C)[C@@H](OC(N)=O)[C@H](OC)/C=C\C=C(/C)C(=O)NC(=CC1=O)C2=O	µM	=	12.7
N#CC(NC(=O)CCl)=C(Cl)Cl	µM	=	3.27
CC1=C2[C@@H](CC1)[C@]1(C)O[C@@](C3CC3)(C[C@H]1OC(=O)CO)[C@H]2OC(=O)/C=C/c1ccccc1	µM	=	30.5
COc1cc2c(cc1OCCCOc1ccc(-c3cc4ccccc4c4ccccc34)cc1)N=C[C@@H]1CCCN1C2=O	µM	=	2.49
Cc1ccc2nc(C(=O)O)c(=O)[nH]c2c1	µM	>	100
c1ccc(-c2c(-c3[nH]c4ccccc4c3-c3ccccc3)[nH]c3ccccc23)cc1	µM	=	14.8
CCCCCCCc1ccc(-c2nnc(N=Nc3ccc(OCCCCC)cc3)s2)s1	µM	>	100

----------
This section lists GI50 readings for U251 CNS.

molecule	GI50
Cc1cc(Nc2ccc(Cl)cc2)nc(NCCCNc2ccnc3cc(Cl)ccc23)n1	1.5 µM
CCCCCCCCCCCCOC1C(C(CC(=O)N2CCN(Cc3ccc4c(c3)OCO4)CC2)NS(=O)(=O)c2cc(Cl)cc(Cl)c2)OC2OC(C)(C)OC21 (stereo unspecified)	12.5 µM
O=C(c1ccccc1)C(Br)C(Br)c1ccccc1 (stereo unspecified)	8.15 µM
O=C(/C=C(\[O-])c1ccccc1)CCCCCCC(=O)/C=C(\[O-])c1ccccc1.O=C(/C=C(\[O-])c1ccccc1)CCCCCCC(=O)/C=C(\[O-])c1ccccc1.O=C(/C=C(\[O-])c1ccccc1)CCCCCCC(=O)/C=C(\[O-])c1ccccc1.[Nd+3].[Nd+3]	> 50 µM
C#Cc1cccc(NC(=O)C2CCCN(C(=O)CCl)C2)c1 (stereo unspecified)	> 82.5 µM
CC1=C2[C@@H](CC1)[C@]1(C)O[C@@](C3CC3)(C[C@H]1OC(=O)CO)[C@H]2OC(=O)/C=C/c1ccccc1	15.6 µM

----------
- Test system: SK-MEL-5 melanoma
- assay info: NCI tumour cell line growth inhibition, 48 h
GI50 overview

compound	GI50
CNCc1cccc2c1OCCOCCOCCC(C)S(=O)(=O)c1ccc(cc1)-c1cnc(N)c(n1)C(=O)N2 (stereo not drawn)	2050 nM
COc1ccc(-c2cc(-c3ccccc3)nc(NCCNc3ccnc4cc(Cl)ccc34)n2)cc1	1790 nM
NC(N)=N/N=C(/c1ccccc1)c1ccccc1F	911 nM

Recorded values, source PubChem BioAssay (NCI).
